molecular target: MNK2 (Homo sapiens (Human)); test: MNK Biochemical Enzymatic Assay (ADP-Glo), MNK2; settings: 3 nM recombinant MNK2, 50 μM substrate peptide, 10 μM ATP
pIC50: −log10 of the molar value.
This section presents compounds with their documented pIC50 values.

As a guide, the following entries are already answered.
Compound | pIC50
NC(=O)c1ccc2c(c1)ncn2-c1cc(N)ncn1 | 7.00 to 8.00
Cc1cc(Nc2ncnc(N)c2C)cc2c1C(=O)NC21CCCCC1 | 7.00 to 8.00
CCc1cncnc1Nc1cc(C)c2c(c1)C1(CCCCC1)NC2=O | 7.00 to 8.00
CC1(N)CNC(=O)c2ccc(Nc3ccncn3)cc21 (stereo not shown) | 5.00 to 7.00

Give MNK2 (Homo sapiens (Human)) pIC50 for the following compound: CC1NC(=O)c2ccc(Nc3cc(NC(=O)C4CC4)ncn3)cc21 (stereo not shown)
> 8.00

Enter pIC50 (test system MNK2 (Homo sapiens (Human))) for CC1NC(=O)c2ccc(Nc3ncnc4c3OCCN4)cc21 (stereo not shown)
5.00 to 7.00

Under MNK2 (Homo sapiens (Human)): report pIC50 of CC1NC(=O)c2c(Cl)cc(Nc3ccncn3)cc21 (stereo not shown) .
> 8.00

Supply pIC50 measured with MNK2 (Homo sapiens (Human)) for CC1(C)NC(=O)c2ccc(Nc3cc(N)ncn3)c(Cl)c21 .
> 8.00

Given CC(=O)Nc1cc(Nc2ccc3c(c2)CNC3=O)ncn1 , report its pIC50 on MNK2 (Homo sapiens (Human)).
7.00 to 8.00

Write pIC50 of O=C1NCCc2cc(Nc3ccncn3)ccc21 ; system used: MNK2 (Homo sapiens (Human))
7.00 to 8.00

###

assay: Pharmacokinetics, single oral gavage administration; assay type: in vivo; details: rat, plasma; male Sprague Dawley rats, single oral gavage 10 mg/kg, N = 3/group (Cpd. 71 N = 2); formulation 10% NMP/90% PEG400 (Cpd. 57: 10% DMA/90% PEG300)
Recorded half-life values for a group of compounds are listed next.
Report as a plain number; the unit h is understood.

Before answering, review these 3 worked examples.
Compound | Measurement kind | Result unit | Reported
COc1c(N)ncnc1Nc1cc(C)c2c(c1)C1(CCCCC1)NC2=O [Cpd. No. 57] | half-life | h | 3.27
COc1c(N)ncnc1Nc1cc(C)c2c(n1)C1(CCCCC1)NC2=O [Cpd. No. 72] | half-life | h | 2.75
Cc1cc(Nc2ncnc(N)c2C)nc2c1C(=O)NC21CCCCC1 [Cpd. No. 71] | half-life | h | 2.9

Item Cc1cc(Nc2ncnc(N)c2Cl)cc2c1C(=O)NC21CCCCC1 [Cpd. No. 58] : provide half-life
9.15

Please list half-life recorded for the compound Cc1cc(Nc2ncnc(N)c2C)cc2c1C(=O)NC21CCCCC1 [Cpd. No. 55]
2.59

###

target: MNK2 (Homo sapiens (Human), UniProt Q9HBH9); assay: MNK Biochemical Enzymatic Assay (ADP-Glo), MNK2; conditions: 3 nM recombinant MNK2, 50 μM substrate peptide, 10 μM ATP
Sequence (Q9HBH9 whole entry): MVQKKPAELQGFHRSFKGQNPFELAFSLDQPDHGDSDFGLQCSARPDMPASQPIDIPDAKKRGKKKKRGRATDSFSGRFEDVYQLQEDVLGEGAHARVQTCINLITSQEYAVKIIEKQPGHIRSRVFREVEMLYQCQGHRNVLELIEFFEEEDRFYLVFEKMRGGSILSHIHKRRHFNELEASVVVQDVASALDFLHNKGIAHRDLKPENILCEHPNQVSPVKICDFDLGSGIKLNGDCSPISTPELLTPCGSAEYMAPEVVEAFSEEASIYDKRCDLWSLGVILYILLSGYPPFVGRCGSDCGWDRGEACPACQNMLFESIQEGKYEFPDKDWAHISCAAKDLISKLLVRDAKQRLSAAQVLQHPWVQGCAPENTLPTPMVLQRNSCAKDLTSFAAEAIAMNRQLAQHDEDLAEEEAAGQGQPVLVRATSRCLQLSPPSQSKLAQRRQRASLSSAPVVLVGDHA
Reported IC50 values for the following compounds.

Compound | IC50
Nc1cc(Nc2cc(Cl)c3c(c2)C2(CCCCC2)NC3=O)ncn1 | < 10 nM
CC1NC(=O)c2cnc(Nc3ccnc(NC(=O)C4CC4)c3)cc21 (stereo not drawn) | < 10 nM
Cc1cc(Nc2ccc3c(c2)C(C)NC3=O)ncn1 (stereo not drawn) | 100 to 10000 nM
CC1Cc2cc(Nc3ccncn3)ccc2NC1=O (stereo not drawn) | 100 to 10000 nM
CC1(N)CC(=O)c2ccc(Nc3ccncn3)cc21 (stereo not drawn) | 100 to 10000 nM

Shift focus to the following entry.
Determine its reported IC50: O=C1NCc2cc(Nc3cc(NC(=O)C4CC4)ncn3)ccc21
< 10 nM

###

Biological target: UniProtKB Q9BUB5
Sequence (Q9BUB5 whole entry): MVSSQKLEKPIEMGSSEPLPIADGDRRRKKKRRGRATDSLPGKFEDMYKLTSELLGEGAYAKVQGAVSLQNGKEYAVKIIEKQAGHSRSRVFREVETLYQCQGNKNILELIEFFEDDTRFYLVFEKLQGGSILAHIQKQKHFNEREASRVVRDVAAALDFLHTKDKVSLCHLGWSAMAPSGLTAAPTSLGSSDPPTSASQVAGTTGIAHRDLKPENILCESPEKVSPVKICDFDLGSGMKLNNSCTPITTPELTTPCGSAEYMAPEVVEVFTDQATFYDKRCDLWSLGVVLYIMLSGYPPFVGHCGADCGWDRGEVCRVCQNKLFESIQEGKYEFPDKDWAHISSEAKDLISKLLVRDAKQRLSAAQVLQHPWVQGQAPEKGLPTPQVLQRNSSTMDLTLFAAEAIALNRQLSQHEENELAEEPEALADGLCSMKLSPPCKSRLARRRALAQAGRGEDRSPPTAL
Experiment: MNK Biochemical Enzymatic Assay (ADP-Glo), MNK1
Conditions: 10 nM recombinant MNK1, 100 μM substrate peptide, 300 μM ATP; read-out: IC50 Mnk1
Procedure: Compounds are screened for MNK inhibition using the ADP-Glo kinase assay kit (Promega, catalogue No. V9101). […] Kinase reactions are carried out in 96-well half-area white flat-bottom polystyrene plates in a final volume of 25 μl. […] The final luminescent signal used for kinase activity readout is produced by the addition of 45 μl of Kinase Detection Reagent (ADP-Glo kit, Promega) and incubating for 40 minutes.
Items are presented alongside their recorded IC50.

Compound | Measurement kind | Reported
O=C1NCCc2cc(Nc3ccncn3)ccc21 | IC50 | 10 to 100 nM
CC(=O)Nc1cc(Nc2ccc3c(c2)CNC3=O)ncn1 | IC50 | < 10 nM
CC1NC(=O)c2ccc(Nc3ccncn3)cc21 (stereo not drawn) | IC50 | 10 to 100 nM
CC1Cc2cc(Nc3ccncn3)ccc2C(=O)N1 (stereo not drawn) | IC50 | 100 to 10000 nM
CC1CC(=O)c2ccc(Nc3cc(NC(=O)C4CC4)ncn3)cc21 (stereo not drawn) | IC50 | < 10 nM

Next compound, IC50 to be filled in.
Tell me its IC50 given CC1NC(=O)c2c(Cl)cc(Nc3ccncn3)cc21 (stereo not drawn) as the entry.
< 10 nM

###

assay: Pharmacokinetics, single oral gavage administration; format: in vivo; settings: rat, plasma; male Sprague Dawley rats, single oral gavage 10 mg/kg, N = 3/group (Cpd. 71 N = 2); formulation 10% NMP/90% PEG400 (Cpd. 57: 10% DMA/90% PEG300)
The label 1.0 is reserved for AUC(0-inf) strictly under 3 µg·h/mL; 0.0 covers values equal to or above it.

Compound | Class assignment
Cc1cc(Nc2ncnc(N)c2C)nc2c1C(=O)NC21CCCCC1 [Cpd. No. 71] | 0.0
COc1c(N)ncnc1Nc1cc(C)c2c(c1)C1(CCCCC1)NC2=O [Cpd. No. 57] | 1.0
Cc1cc(Nc2ncnc(N)c2Cl)cc2c1C(=O)NC21CCCCC1 [Cpd. No. 58] | 1.0
COc1c(N)ncnc1Nc1cc(C)c2c(n1)C1(CCCCC1)NC2=O [Cpd. No. 72] | 1.0

Consider now this further compound.
Say whether its AUC(0-inf) is strictly beneath 3 µg·h/mL. Entry: Cc1cc(Nc2ncnc(N)c2C)cc2c1C(=O)NC21CCCCC1 [Cpd. No. 55]
1.0

###

Experiment: Pharmacokinetics, single oral gavage administration
Assay type: in vivo
Conditions: male Sprague Dawley rats, single oral gavage 10 mg/kg, N = 3/group (Cpd. 71 N = 2); formulation 10% NMP/90% PEG400 (Cpd. 57: 10% DMA/90% PEG300)
Method: Groups of Balb/c mice or Sprague-Dawley rats (n≥3 per dose group) are administered single doses of test compound. […] Following protein precipitation with acetonitrile containing an internal standard, plasma samples are analyzed using a liquid chromatography/high-resolution mass spectrometry (LC-HRMS) method to determine plasma concentrations. […]
Measurement kind: F
Entry format: amount then unit.

Molecule | F
COc1c(N)ncnc1Nc1cc(C)c2c(c1)C1(CCCCC1)NC2=O [Cpd. No. 57] | 14.5%
Cc1cc(Nc2ncnc(N)c2C)nc2c1C(=O)NC21CCCCC1 [Cpd. No. 71] | 63.9%
Cc1cc(Nc2ncnc(N)c2Cl)cc2c1C(=O)NC21CCCCC1 [Cpd. No. 58] | 27.9%

Identify measured F associated with COc1c(N)ncnc1Nc1cc(C)c2c(n1)C1(CCCCC1)NC2=O [Cpd. No. 72]
24.2%

Return the recorded F value; entry: Cc1cc(Nc2ncnc(N)c2C)cc2c1C(=O)NC21CCCCC1 [Cpd. No. 55]
25.0%

###

assay: Pharmacokinetics, single oral gavage administration; type: in vivo; conditions: rat, plasma; male Sprague Dawley rats, single oral gavage 10 mg/kg, N = 3/group (Cpd. 71 N = 2); formulation 10% NMP/90% PEG400 (Cpd. 57: 10% DMA/90% PEG300)
Measurement kind: Cmax (ng/mL)
# unit: ng/mL | format: bare number

Example results:
Compound structure string | Cmax [ng/mL]
COc1c(N)ncnc1Nc1cc(C)c2c(c1)C1(CCCCC1)NC2=O | 584
Cc1cc(Nc2ncnc(N)c2C)cc2c1C(=O)NC21CCCCC1 | 425
Cc1cc(Nc2ncnc(N)c2Cl)cc2c1C(=O)NC21CCCCC1 | 417
Cc1cc(Nc2ncnc(N)c2C)nc2c1C(=O)NC21CCCCC1 | 1140

Here is another compound to look at.
For the compound COc1c(N)ncnc1Nc1cc(C)c2c(n1)C1(CCCCC1)NC2=O , report Cmax.
1380

###

biological target: UniProtKB Q9HBH9; assay: MNK Biochemical Enzymatic Assay (ADP-Glo), MNK2; conditions: 3 nM recombinant MNK2, 50 μM substrate peptide, 10 μM ATP
// reported IC50 per item

Guide cases for IC50, answers given:
Compound | IC50
COc1cncnc1Nc1cc(C)c2c(c1)C1(CCCCC1)NC2=O [Cpd. No. 54] | < 10 nM
CC1Cc2cc(Nc3ccncn3)ccc2C(=O)N1 (centres unmarked) [Cpd. No. 23] | 10 to 100 nM
CC1c2cc(Nc3ccncn3)ccc2C(=O)N1C (centres unmarked) [Cpd. No. 20] | 100 to 10000 nM
CNc1cc(Nc2ccc3c(c2)C(C)NC3=O)ccn1 (centres unmarked) [Cpd. No. 25] | 100 to 10000 nM
Cc1cc(Nc2cc(N)ncn2)cc2c1C(=O)NC21CCCC1 [Cpd. No. 47] | < 10 nM
Cc1cc(Nc2cc(N)ncn2)cc2c1C(=O)NC21CCCCC1 [Cpd. No. 51] | < 10 nM
Cc1cc(Nc2cc(N)ncn2)cc2c1C(=O)NC2(C)C [Cpd. No. 44] | < 10 nM
CC1NC(=O)c2ccc(Nc3ncnc4c3CC(=O)N4)cc21 (centres unmarked) [Cpd. No. 41] | 100 to 10000 nM
Nc1ncnc(Nc2cc(Cl)c3c(c2)C2(CCCCC2)NC3=O)c1Cl [Cpd. No. 59] | < 10 nM
CC1NC(=O)c2ccc(Nc3ncnc4c3CCN4)cc21 (centres unmarked) [Cpd. No. 39] | 100 to 10000 nM

State its IC50: CC1CC(=O)c2ccc(Nc3cc(NC(=O)C4CC4)ncn3)cc21 (centres unmarked) [Cpd. No. 19]
10 to 100 nM

Please give the documented IC50 of CC1NC(=O)c2ccc(Nc3ccncn3)cc21 (centres unmarked) [Cpd. No. 8]
10 to 100 nM

Entry COc1c(N)ncnc1Nc1cc(C)c2c(c1)C1(CCCCC1)NC2=O [Cpd. No. 57] needs its IC50 filled in; supply it.
< 10 nM

Fill in IC50 for record CC1(C)NC(=O)c2c(Cl)cc(Nc3ncnc(N)c3Cl)cc21 [Cpd. No. 50]
< 10 nM

Give the reported value of IC50 for this record: O=c1[nH]sc2cc(Nc3ccncn3)ccc12 [Cpd. No. 27]
100 to 10000 nM

Return value of IC50 for input Cc1cc(Nc2ccncn2)cc2c1C(=O)NC2C (centres unmarked) [Cpd. No. 33] , no commentary.
10 to 100 nM

Specify reported IC50 for the compound shown: CCc1c(N)ncnc1Nc1cc(C)c2c(c1)C1(CCCCC1)NC2=O [Cpd. No. 53]
< 10 nM

Look up and report measured IC50 for this entry: CC(C)C1NC(=O)c2ccc(Nc3ccncn3)cc21 (centres unmarked) [Cpd. No. 13]
10 to 100 nM

Report measured IC50; entry is Cc1cc(Nc2ncnc(N)c2Cl)cc2c1C(=O)NC21CCCCC1 [Cpd. No. 58]
< 10 nM

Answer with the recorded IC50 of O=C1NC2CC2c2cc(Nc3ccncn3)ccc21 (centres unmarked) [Cpd. No. 29] only.
100 to 10000 nM
